Data origin, for the record: BindingDB's records for doi:10.1007/s00044-013-0797-8

Assay system Tyrosine-protein phosphatase non-receptor type 1 (Homo sapiens); read-out recorded as pIC50.
Give bare numbers, as −log10 of the molar value.

Field pIC50 (entry CC1(C)Cc2c(nn(-c3cccc(C(F)(F)F)c3)c(=N)c2C#N)CO1 ) reads 5.55

Note to self: pIC50 recorded for CCc1ccc(-n2nc3c(c(C#N)c2=N)CC(C)(C)OC3)cc1 was 5.55

Value of pIC50 reported for the compound CCc1cccc(-n2nc3c(c(C#N)c2=N)CC(C)(C)OC3)c1 is 5.09

Looking up CC1(C)Cc2c(nn(-c3cccc(Oc4ccccc4)c3)c(=N)c2C#N)CO1 , I found its pIC50 recorded as 5.41

The compound listed as CC1(C)Cc2c(nn(-c3ccccc3N3CCOCC3)c(=N)c2C#N)CO1 has a reported pIC50 of 5.54

Give pIC50 for each listed item.
1. CC1(C)Cc2c(nn(-c3ccc(CCO)cc3)c(=N)c2C#N)CO1
2. CC(C)c1cccc(-n2nc3c(c(C#N)c2=N)CC(C)(C)OC3)c1
3. CC1(C)Cc2c(nn(-c3ccccc3F)c(=N)c2C#N)CO1
4. CC1(C)Cc2c(nn(-c3cccc(CO)c3)c(=N)c2C#N)CO1
5. CC1(C)Cc2c(nn(-c3ccccc3C(F)(F)F)c(=N)c2C#N)CO1

Response:
5.54
5.09
5.62
5.62
5.41
